Data origin: the supplement of paper PMC9112550

system: Escherichia coli TOP10; assay: shrunken log2 fold change of peptide-encoding DNA abundance (4.5 h post-induction vs induction); higher = less antimicrobial activity (less host growth inhibition); settings: time post-induction: 4.5 h; library: site-saturation at positions 5, 18, 19, 20
READOUT NAME: shrunken log2 fold change

Use the examples below as a reference point.
[[record]]
polymer_sequence = "RRIRIRPPRLPRPRPRPISPPRP"
system = "Escherichia coli TOP10"
reading = 0.0361

[[record]]
polymer_sequence = "RRIRERPPRLPRPRPRPPNEPRP"
system = "Escherichia coli TOP10"
reading = 0.28

[[record]]
polymer_sequence = "RRIRTRPPRLPRPRPRPCALPRP"
system = "Escherichia coli TOP10"
reading = -0.0236

[[record]]
polymer_sequence = "RRIRTRPPRLPRPRPRPSEKPRP"
system = "Escherichia coli TOP10"
reading = -0.0354

[[record]]
polymer_sequence = "RRIRARPPRLPRPRPRPTSKPRP"
system = "Escherichia coli TOP10"
reading = 0.236


Quick one: shrunken log2 fold change for `RRIRMRPPRLPRPRPRPCAKPRP` ? 0.207

Quick one: shrunken log2 fold change for `RRIRKRPPRLPRPRPRPTYEPRP` ? 0.367

Quick one: shrunken log2 fold change for `RRIRLRPPRLPRPRPRPEEVPRP` ? -0.00242

Quick one: shrunken log2 fold change for `RRIRSRPPRLPRPRPRPVSCPRP` ? -0.00594

Quick one: shrunken log2 fold change for `RRIRRRPPRLPRPRPRPWCCPRP` ? -0.0571

====

tested on: Escherichia coli TOP10; test: shrunken log2 fold change of peptide-encoding DNA abundance (4.5 h post-induction vs induction); higher = less antimicrobial activity (less host growth inhibition); details: time post-induction: 4.5 h; library: site-saturation at positions 5, 18, 19, 20
READOUT NAME: shrunken log2 fold change

Use the examples below as a reference point.
[[record]]
polymer_sequence = "RRIRKRPPRLPRPRPRPCPYPRP"
readout_name = "shrunken log2 fold change"
reading = 0.151

[[record]]
polymer_sequence = "RRIRGRPPRLPRPRPRPPGSPRP"
readout_name = "shrunken log2 fold change"
reading = 1.09

[[record]]
polymer_sequence = "RRIRPRPPRLPRPRPRPMSQPRP"
readout_name = "shrunken log2 fold change"
reading = 0.0517


Could you share what shrunken log2 fold change was measured for `RRIRTRPPRLPRPRPRPYCSPRP` , tested on Escherichia coli TOP10? -0.858

Could you share what shrunken log2 fold change was measured for `RRIRNRPPRLPRPRPRPGRSPRP` , tested on Escherichia coli TOP10? 0.17

Could you share what shrunken log2 fold change was measured for `RRIRLRPPRLPRPRPRPYCMPRP` , tested on Escherichia coli TOP10? -1.34

Could you share what shrunken log2 fold change was measured for `RRIRRRPPRLPRPRPRPLSMPRP` , tested on Escherichia coli TOP10? 0.263

Could you share what shrunken log2 fold change was measured for `RRIRHRPPRLPRPRPRPEHRPRP` , tested on Escherichia coli TOP10? -0.137

Could you share what shrunken log2 fold change was measured for `RRIRYRPPRLPRPRPRPGWKPRP` , tested on Escherichia coli TOP10? 0.00711

====

system: Escherichia coli TOP10; assay: shrunken log2 fold change of peptide-encoding DNA abundance (4.5 h post-induction vs induction); higher = less antimicrobial activity (less host growth inhibition); conditions: time post-induction: 4.5 h; library: site-saturation at positions 5, 18, 19, 20
We use -0.2 as the dividing line for shrunken log2 fold change: on or above the line is y, below is n.

Reference set (7 entries):
[[record]]
polymer_sequence = "RRIRGRPPRLPRPRPRPQGVPRP"
category = "y"

[[record]]
polymer_sequence = "RRIRTRPPRLPRPRPRPDSEPRP"
category = "y"

[[record]]
polymer_sequence = "RRIRFRPPRLPRPRPRPGYMPRP"
category = "n"

[[record]]
polymer_sequence = "RRIRYRPPRLPRPRPRPTEHPRP"
category = "n"

[[record]]
polymer_sequence = "RRIRCRPPRLPRPRPRPIWLPRP"
category = "y"

[[record]]
polymer_sequence = "RRIRWRPPRLPRPRPRPDDIPRP"
category = "y"

[[record]]
polymer_sequence = "RRIRERPPRLPRPRPRPFNSPRP"
category = "n"


Kindly review the next sequence as well.
Given the entry `RRIRCRPPRLPRPRPRPRNYPRP` , answer whether its shrunken log2 fold change meets or surpasses -0.2. y

====

tested on: Escherichia coli TOP10; assay: shrunken log2 fold change of peptide-encoding DNA abundance (4.5 h post-induction vs induction); higher = less antimicrobial activity (less host growth inhibition); settings: time post-induction: 4.5 h; library: site-saturation at positions 5, 18, 19, 20
READOUT NAME: shrunken log2 fold change
Enter the number alone.

[[record]]
polymer_sequence = "RRIRMRPPRLPRPRPRPKTRPRP"
readout_name = "shrunken log2 fold change"
reading = 0.994


Quick one: shrunken log2 fold change for `RRIRFRPPRLPRPRPRPPQPPRP` ? 0.795

Quick one: shrunken log2 fold change for `RRIRYRPPRLPRPRPRPTDWPRP` ? -0.314

Quick one: shrunken log2 fold change for `RRIRERPPRLPRPRPRPRHLPRP` ? -0.427

Quick one: shrunken log2 fold change for `RRIRARPPRLPRPRPRPIFPPRP` ? 0.32

Quick one: shrunken log2 fold change for `RRIRLRPPRLPRPRPRPNQYPRP` ? -0.126

Quick one: shrunken log2 fold change for `RRIRSRPPRLPRPRPRPPYGPRP` ? -0.401

Quick one: shrunken log2 fold change for `RRIRGRPPRLPRPRPRPINMPRP` ? -0.0846

Quick one: shrunken log2 fold change for `RRIRDRPPRLPRPRPRPQRMPRP` ? -0.0312

Quick one: shrunken log2 fold change for `RRIRKRPPRLPRPRPRPHETPRP` ? -0.0327

====

system: Escherichia coli TOP10; assay: shrunken log2 fold change of peptide-encoding DNA abundance (4.5 h post-induction vs induction); higher = less antimicrobial activity (less host growth inhibition); settings: time post-induction: 4.5 h; library: site-saturation at positions 5, 18, 19, 20;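 further: peptides expressed intracellularly from a pBAD plasmid library in pooled LB shake-flask culture, induced with 0.3% L-arabinose, DNA abundance read by NGS, three biological replicates, DESeq2 with apeglm shrinkage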
READOUT NAME: shrunken log2 fold change
Enter the number alone.

Use the examples below as a reference point.
[[record]]
polymer_sequence = "RRIRFRPPRLPRPRPRPMPMPRP"
system = "Escherichia coli TOP10"
readout_name = "shrunken log2 fold change"
reading = -0.00868

[[record]]
polymer_sequence = "RRIRFRPPRLPRPRPRPAMDPRP"
system = "Escherichia coli TOP10"
readout_name = "shrunken log2 fold change"
reading = -0.0614

[[record]]
polymer_sequence = "RRIRHRPPRLPRPRPRPYMWPRP"
system = "Escherichia coli TOP10"
readout_name = "shrunken log2 fold change"
reading = -1.86

[[record]]
polymer_sequence = "RRIRDRPPRLPRPRPRPHHPPRP"
system = "Escherichia coli TOP10"
readout_name = "shrunken log2 fold change"
reading = -0.408

[[record]]
polymer_sequence = "RRIRPRPPRLPRPRPRPFFCPRP"
system = "Escherichia coli TOP10"
readout_name = "shrunken log2 fold change"
reading = 0.0262

[[record]]
polymer_sequence = "RRIRKRPPRLPRPRPRPLATPRP"
system = "Escherichia coli TOP10"
readout_name = "shrunken log2 fold change"
reading = 0.527

[[record]]
polymer_sequence = "RRIRKRPPRLPRPRPRPAGVPRP"
system = "Escherichia coli TOP10"
readout_name = "shrunken log2 fold change"
reading = 0.685

[[record]]
polymer_sequence = "RRIRFRPPRLPRPRPRPYTYPRP"
system = "Escherichia coli TOP10"
readout_name = "shrunken log2 fold change"
reading = -0.141


Could you share what shrunken log2 fold change was measured for `RRIRWRPPRLPRPRPRPQSWPRP` , tested on Escherichia coli TOP10? 0.302

Could you share what shrunken log2 fold change was measured for `RRIRARPPRLPRPRPRPDWTPRP` , tested on Escherichia coli TOP10? 0.0425

Could you share what shrunken log2 fold change was measured for `RRIRARPPRLPRPRPRPPDPPRP` , tested on Escherichia coli TOP10? 1

Could you share what shrunken log2 fold change was measured for `RRIRMRPPRLPRPRPRPMANPRP` , tested on Escherichia coli TOP10? 0.356

Could you share what shrunken log2 fold change was measured for `RRIRRRPPRLPRPRPRPPMCPRP` , tested on Escherichia coli TOP10? 0.622

Could you share what shrunken log2 fold change was measured for `RRIRDRPPRLPRPRPRPMRVPRP` , tested on Escherichia coli TOP10? 0.304

Could you share what shrunken log2 fold change was measured for `RRIRQRPPRLPRPRPRPHRPPRP` , tested on Escherichia coli TOP10? 0.0757

Could you share what shrunken log2 fold change was measured for `RRIRVRPPRLPRPRPRPGNVPRP` , tested on Escherichia coli TOP10? -0.393

Could you share what shrunken log2 fold change was measured for `RRIRVRPPRLPRPRPRPVTRPRP` , tested on Escherichia coli TOP10? 0.0259

Could you share what shrunken log2 fold change was measured for `RRIRWRPPRLPRPRPRPAFCPRP` , tested on Escherichia coli TOP10? 0.143

Could you share what shrunken log2 fold change was measured for `RRIRKRPPRLPRPRPRPLFGPRP` , tested on Escherichia coli TOP10? 0.439

Could you share what shrunken log2 fold change was measured for `RRIRMRPPRLPRPRPRPYDKPRP` , tested on Escherichia coli TOP10? -0.351

Could you share what shrunken log2 fold change was measured for `RRIRIRPPRLPRPRPRPGNPPRP` , tested on Escherichia coli TOP10? -0.366

Could you share what shrunken log2 fold change was measured for `RRIRWRPPRLPRPRPRPTWYPRP` , tested on Escherichia coli TOP10? 0.27

Could you share what shrunken log2 fold change was measured for `RRIRMRPPRLPRPRPRPHERPRP` , tested on Escherichia coli TOP10? 1.04

Could you share what shrunken log2 fold change was measured for `RRIRYRPPRLPRPRPRPLENPRP` , tested on Escherichia coli TOP10? -0.0143
